# System: UACC-257 melanoma
# ASSAY INFO: NCI-60 one-dose screen, 48 h (100 = growth as untreated, 0 = no growth, -100 = all killed)
# SETUP CONDITIONS: 10 µM unless noted
The panel holds about 83,000 compounds, 20% with a hit somewhere; the sample as a whole holds those more often.
MEASURED PROPERTY: growth (%)
Return type: number; implicit unit %.

Sample records with growth:
>  <COMPOUND>
COc1ccc(Nc2ncc(Br)c(NCCCNC(=O)C3CCC3)n2)cc1

>  <MEASURED PROPERTY>
growth

>  <UNITS>
%

>  <ASSAY VALUE>
74.3

$$$$
>  <COMPOUND>
COc1ccc(/C=C(\C#N)n2nnc3cc(F)c(F)cc32)c(OC)c1OC

>  <MEASURED PROPERTY>
growth

>  <UNITS>
%

>  <ASSAY VALUE>
64.4

$$$$
>  <COMPOUND>
CCCc1nc2ccccn2c1Nc1ccc(C(=O)NO)cc1

>  <MEASURED PROPERTY>
growth

>  <UNITS>
%

>  <ASSAY VALUE>
76.1

$$$$
>  <COMPOUND>
CNC=O

>  <MEASURED PROPERTY>
growth

>  <UNITS>
%

>  <ASSAY VALUE>
91.1

$$$$
>  <COMPOUND>
Cc1cc(=O)[nH]c(N/N=C/c2cc(Br)ccc2O)n1

>  <MEASURED PROPERTY>
growth

>  <UNITS>
%

>  <ASSAY VALUE>
14.1

$$$$
>  <COMPOUND>
CCCCCCNC(=O)c1cc(NCc2cc(O)ccc2O)ccc1O

>  <MEASURED PROPERTY>
growth

>  <UNITS>
%

>  <ASSAY VALUE>
56.1

$$$$

Request body: readout growth, system UACC-257 melanoma, query O=C(CCc1nc(-c2cccc(Cl)c2)no1)Nc1ccccn1 . Return the value. 114

Please answer likewise for O=C1N(c2ccccc2)C(=S)N[C@]12[C@H](c1ccccc1)C1CCCN1[C@]21C(=O)NC2C=CC(Cl)=C[C@H]21 (stereo partly specified) 69.8

====

# Tested on: HOP-92 NSCLC
# ASSAY INFO: NCI-60 one-dose screen, 48 h (100 = growth as untreated, 0 = no growth, -100 = all killed)
# SETUP CONDITIONS: 10 µM unless noted
Compounds without any hit were thinned out: in the full panel of roughly 83,000, 20% have a hit.
// values below are reported growth
Kindly answer with a numeric value in %, unit omitted.

// known answers, use as guide
>  <MOLECULE>
O=C(NCCOCCOCCOCCNC(=O)c1cc2c(o1)C(=O)c1ccccc1C2=O)NC12CC3CC(CC(C3)C1)C2

>  <growth / %>
43.5

$$$$
>  <MOLECULE>
COC1(CC[C@@H](C)COC2OC(CO)C(O)C(O)C2O)O[C@H]2C[C@H]3[C@@H]4CC=C5C[C@@H](OC6OC(CO)C(OC7OC(C)C(O)C(O)C7O)C(O)C6OC6OC(C)C(O)C(O)C6O)CC[C@]5(C)[C@H]4CC[C@]3(C)[C@H]2[C@@H]1C (some centres not stated)

>  <growth / %>
-62

$$$$
>  <MOLECULE>
C=C1C(=O)O[C@H]2[C@H]1CC/C(COC(=O)/C=C\C(=O)NCc1ccc(Cn3c(=O)sn(-c4ccc(C#N)cc4)c3=O)cc1)=C\CC[C@@]1(C)O[C@@H]21

>  <growth / %>
-65.8

$$$$

Could you tell me which growth is on file for CCCc1nc2ccccn2c1Nc1ccc(C(=O)NO)cc1 ? 103

Another molecule to check: COc1cc(-c2cccc([N+](=O)[O-])c2)c(-c2nc(-c3ccccc3)c(-c3ccccc3)n2C2CC2)cc1OC 34.6

Please do the same for CN1C[C@@H](c2ccc(Cl)cc2)[C@]2(NC(=S)N(c3ccc(F)c(Cl)c3)C2=O)[C@@]12C(=O)NC1C=CC(Cl)=C[C@H]12 (some centres not stated) as well. -7.71

How about this molecule: COc1cc(C2C=C(c3cccc(NC(C)=O)c3)Nc3ncnn32)cc(OC)c1OC (configuration not stated) 68.9
